For each record, write down the corresponding IC50.
tested on: Human lung carcinoma cell A549; assay: cells; conditions: A549, read-out: IC50 (50% inhibition concentration)
Answers are plain numbers, in µg/mL.

MOLECULE: CC(C)=CCc1c2c(c(O)c3c1O[C@]14C(=C[C@@H]5CC1C(C)(C)OC4(C/C=C(/C)C(=O)O)C5=O)C3=O)C=C[C@@](C)(C/C=C/C(C)(C)O)O2
IC50 / µg/mL: 1.7

MOLECULE: C=C(C)C(O)CC[C@]1(C)C=Cc2c(O)c3c(c(CC=C(C)C)c2O1)O[C@]12C(=C[C@@H]4CC1C(C)(C)OC2(C/C=C(/C)C(=O)O)C4=O)C3=O (stereo partly drawn)
IC50 / µg/mL: 0.62

MOLECULE: CC(C)=CCC[C@@]1(C)C=Cc2c(O)c3c(c(CC=C(C)C)c2O1)O[C@]12C(=C[C@@H]4CC1C(C)(C)O[C@]2(C/C=C(/C)C(=O)O)C4=O)C3=O [Gh-2606, epigambogic acid]
IC50 / µg/mL: 0.1

MOLECULE: C=C(C)[C@@H]1CC[C@@]2(C)CC1c1c(O)c3c(c(CC=C(C)C)c1O2)O[C@]12C(=C[C@@H]4CC1C(C)(C)O[C@]2(C/C=C(/C)C(=O)O)C4=O)C3=O [Gh-2603-1, epigambogellic acid]
IC50 / µg/mL: 0.036

MOLECULE: CC(C)=CCC[C@]1(C)C=Cc2c(O)c3c(c(CC4OC4(C)C)c2O1)O[C@]12C(=C[C@@H]4CC1C(C)(C)OC2(C/C=C(/C)C(=O)O)C4=O)C3=O (stereo partly drawn)
IC50 / µg/mL: 0.18

Would you mind listing IC50 for each of the following molecules?
1. C=C(C)C1CC[C@@]2(C)Oc3c(CC=C(C)C)c4c(c(O)c3[C@@H]1C2O)C(=O)C1=C[C@@H]2CC3C(C)(C)OC(C/C=C(/C)C(=O)O)(C2=O)[C@@]13O4 (stereo partly drawn) [Gh-1050, 3α-hydroxygambogellic acid]
2. CC(C)=CCc1c2c(c(O)c3c1O[C@]14C(=C[C@@H]5CC1C(C)(C)OC4(C/C=C(\C)C(=O)O)C5=O)C3=O)C=CC(C)(C/C=C\C(C)(C)O)O2 (stereo partly drawn)

1. 0.13
2. 1.3

Would you mind listing IC50 for each of the following molecules?
1. CC(C)=CCc1c2c(c(O)c3c1O[C@]1(C)CCC4[C@H]3C1C4(C)C)C(=O)C1=CC3CC4C(C)(C)O[C@](C/C=C(/C)C(=O)O)(C3=O)[C@@]14O2
2. CC(C)=CCC[C@]1(C)C=Cc2c(O)c3c(c(C(O)C4OC4(C)C)c2O1)O[C@]12C(=C[C@@H]4CC1C(C)(C)OC2(C/C=C(/C)C(=O)O)C4=O)C3=O (stereo partly drawn)
3. C=C(C)C1CC[C@]2(C)C[C@H]1c1c(O)c3c(c(CC=C(C)C)c1O2)O[C@]12C(=CC4CC1C(C)(C)O[C@]2(C/C=C(/C)C(=O)O)C4=O)C3=O (stereo partly drawn)
4. CC(C)=CCC[C@@]1(C)C=Cc2c(O)c3c(c(C(O)C4OC4(C)C)c2O1)O[C@]12C(=C[C@@H]4CC1C(C)(C)OC2(C/C=C(/C)C(=O)O)C4=O)C3=O (stereo partly drawn) [Gh-3311, epiformoxanthone G]
5. CC(C)=CCC[C@@]1(C)C=Cc2c(O)c3c(c(CC4OC4(C)C)c2O1)O[C@]12C(=C[C@@H]4CC1C(C)(C)OC2(C/C=C(/C)C(=O)O)C4=O)C3=O (stereo partly drawn) [Gh-3351, epiformoxanthone E]

[0.1, 2.6, 0.2, 5, 0.77]

----------
test system: Human umbilical venal epithelial cell (HUVEC); experiment: in vitro; details: HUVEC
For each record, write down the corresponding LC50 (50% lethal concentration).
One number for each entry, in µg/mL.

Some compounds with recorded LC50 (50% lethal concentration):
COMPOUND: CC(C)=CCc1c2c(c(O)c3c1O[C@]1(C)CCC4[C@H]3C1C4(C)C)C(=O)C1=CC3CC4C(C)(C)O[C@](C/C=C(/C)C(=O)O)(C3=O)[C@@]14O2
UOM: µg/mL
LC50 (50% lethal concentration): 1.6

COMPOUND: C=C(C)[C@@H]1CC[C@@]2(C)CC1c1c(O)c3c(c(CC=C(C)C)c1O2)O[C@]12C(=C[C@@H]4CC1C(C)(C)O[C@]2(/C=C/C(C)C(=O)O)C4=O)C3=O (stereo partly drawn) [Gh-2507, β-epigambogellic acid]
UOM: µg/mL
LC50 (50% lethal concentration): 21.0

COMPOUND: CC(C)=CCC/C(C)=C/Cc1c(O)c(CC=C(C)C)c2c(c1O)C(=O)C1=C[C@@H]3CC4C(C)(C)OC(CC=C(C)C)(C3=O)[C@@]14O2
UOM: µg/mL
LC50 (50% lethal concentration): 1.3

COMPOUND: CC(C)=CCC[C@]1(C)C=Cc2c(O)c3c(c(CC=C(C)C)c2O1)O[C@]12C(=C[C@@H]4CC1C(C)(C)O[C@]2(C/C=C(\C)C(=O)O)C4=O)C3=O
UOM: µg/mL
LC50 (50% lethal concentration): 1.3

Now examine the next entry.
Consider the compound shown here: C=C(C)C1CC[C@]2(C)C[C@H]1c1c(O)c3c(c(CC=C(C)C)c1O2)O[C@]12C(=C[C@@H]4CC1C(C)(C)O[C@]2(/C=C/C(C)C(=O)O)C4=O)C3=O (some centres unmarked) What is its recorded LC50 (50% lethal concentration)?
5.4

----------
system: Human lung carcinoma cell A549; experiment: cells; details: A549, read-out: LC50 (50% lethal concentration)
Entries whose CC50 is below 2 µg/mL take y; entries at or above 2 µg/mL take n.

As a guide, the following entries are already answered.
COMPOUND: CC(C)=CCc1c2c(c(O)c3c1O[C@]14C(=C[C@@H]5CC1C(C)(C)OC4(C/C=C(/C)C(=O)O)C5=O)C3=O)C=C[C@](C)(CCC(O)C(C)(C)O)O2 (some centres unmarked) [Gh-3271, epiformoxanthone J]
SYSTEM: Human lung carcinoma cell A549
LABEL: y
--
COMPOUND: CC(C)=CCC[C@]1(C)C=Cc2c(O)c3c(c(CC(O)C(C)(C)O)c2O1)O[C@]12C(=C[C@@H]4CC1C(C)(C)OC2(C/C=C(/C)C(=O)O)C4=O)C3=O (some centres unmarked)
SYSTEM: Human lung carcinoma cell A549
LABEL: n

Strictly below 2 µg/mL: is that where CC50 of CC(C)=CCc1c2c(c(O)c3c1O[C@]14C(=C[C@@H]5CC1C(C)(C)OC4(C/C=C(\C)C(=O)O)C5=O)C3=O)C=CC(C)(C/C=C\C(C)(C)O)O2 (some centres unmarked) sits?
n

Strictly below 2 µg/mL: is that where CC50 of CC(C)=CCC[C@@]1(C)C=Cc2c(O)c3c(c(C(O)C4OC4(C)C)c2O1)O[C@]12C(=C[C@@H]4CC1C(C)(C)OC2(C/C=C(/C)C(=O)O)C4=O)C3=O (some centres unmarked) [Gh-3311, epiformoxanthone G] sits?
n

Strictly below 2 µg/mL: is that where CC50 of CC(C)=CCC[C@]1(C)C=Cc2c(O)c3c(c(C(O)C4OC4(C)C)c2O1)O[C@]12C(=C[C@@H]4CC1C(C)(C)OC2(C/C=C(/C)C(=O)O)C4=O)C3=O (some centres unmarked) sits?
n

----------
test system: Human breast adenocarcinoma cell MCF7; assay: cells; conditions: MCF7, read-out: LC50 (50% lethal concentration)
Entries whose CC50 is below 4 µg/mL take t; entries at or above 4 µg/mL take f.

As a guide, the following entries are already answered.
MOLECULE: CC(C)=CCC[C@@]1(C)C=Cc2c(O)c3c(c(C(O)C4OC4(C)C)c2O1)O[C@]12C(=C[C@@H]4CC1C(C)(C)OC2(C/C=C(/C)C(=O)O)C4=O)C3=O (some centres unmarked) [Gh-3311, epiformoxanthone G]
LABEL: f
//
MOLECULE: CC(C)=CCC[C@@]1(C)C=Cc2c(O)c3c(c(CC(O)C(C)(C)O)c2O1)O[C@]12C(=C[C@@H]4CC1C(C)(C)OC2(C/C=C(/C)C(=O)O)C4=O)C3=O (some centres unmarked) [Gh-1036, epiformoxanthone F]
LABEL: t
//
MOLECULE: CC(C)=CCC[C@]1(C)C=Cc2c(O)c3c(c(CC(O)C(C)(C)O)c2O1)O[C@]12C(=C[C@@H]4CC1C(C)(C)OC2(C/C=C(/C)C(=O)O)C4=O)C3=O (some centres unmarked) [Gh-1052, formoxanthone F]
LABEL: t
//
MOLECULE: CC(C)=CCC[C@]1(C)C=Cc2c(O)c3c(c(C(O)C4OC4(C)C)c2O1)O[C@]12C(=C[C@@H]4CC1C(C)(C)OC2(C/C=C(/C)C(=O)O)C4=O)C3=O (some centres unmarked) [Gh-3353, formoxanthone G]
LABEL: f

Read the next record carefully.
Strictly below 4 µg/mL: is that where CC50 of CC(C)=CCc1c2c(c(O)c3c1O[C@]14C(=C[C@@H]5CC1C(C)(C)OC4(C/C=C(\C)C(=O)O)C5=O)C3=O)C=CC(C)(C/C=C\C(C)(C)O)O2 (some centres unmarked) [Gh-3332, isoformoxanthone I] sits?
t
